- System: CYP enzymes in rat liver microsomes (RLM)
- assayRemarks: Inhibition of 20-HETE production in rat liver microsomes (RLM)
- Format: biochemical
- conditionsUsed: 500 nM
assayMetric: RLM (% inh @ 500 nM) (%)

compound=O=C(Nc1ccccc1)C1CCN(c2ccc(-c3cn[nH]c3)cc2)CC1 assaymetric="RLM (% inh @ 500 nM)" unitabbrev=% reportedvalue=44.45
compound="O=C1CCCCC1C(=O)N1CCC(c2ccc(-c3cn[nH]c3)c(F)c2F)CC1 (stereo not drawn)" assaymetric="RLM (% inh @ 500 nM)" unitabbrev=% reportedvalue=68.22

I: O=C1CCCN1CC1CCN(c2cc(F)c(-c3cn[nH]c3)cc2F)CC1
II: O=C(NCC1CCN(c2ccc(-c3cn[nH]c3)cc2)CC1)c1ccccc1
Task: Looking at recorded values for RLM (% inh @ 500 nM), does I or II come in lower? Pick one; state its label.
Result: I

P: O=C1CCCCN1CC1CCN(c2ccc(-c3cn[nH]c3)c(F)c2F)CC1
Q: O=C1CCCN1C1CCN(c2ccc(-c3cn[nH]c3)cc2)CC1
Task: Looking at recorded values for RLM (% inh @ 500 nM), does P or Q come in lower? Pick one; state its label.
Result: Q
(Q: 29.56%, P: 63.62%)

I: C#CCCCCCC(=O)NCC1CCN(c2ccc(-c3cn[nH]c3)cc2)CC1
II: O=C1CCCN1CC1CCN(c2ccc(-c3cn[nH]c3)cc2CO)CC1
Task: Between I and II , whose recorded RLM (% inh @ 500 nM) is greater? Pick one; state its label.
Result: I
(I: 54.89%, II: 17.66%)

P: O=S(=O)(c1ccc(F)cc1)N1CCC(c2ccc(-c3cn[nH]c3)cc2F)CC1
Q: O=Cc1cc(-c2cn[nH]c2)ccc1N1CCC(CN2CCCC2=O)CC1
Task: Looking at recorded values for RLM (% inh @ 500 nM), does P or Q come in lower? Pick one; state its label.
Result: Q
